Read-out record for Carbonic anhydrase 1 (Homo sapiens): pKi
pKi: −log10 of the molar value.
assay_readout: pKi

1. NS(=O)(=O)c1ccc(NC(=S)NC(CC(=O)O)C(=O)NC(CC(=O)O)C(=O)O)cc1 (stereo unspecified)	7.30
2. NS(=O)(=O)c1ccc(N/C(S)=N/C(C(=O)O)c2ccccc2)cc1 (stereo unspecified)	7.40
3. NS(=O)(=O)c1ccc(N/C(S)=N/C(Cc2c[nH]c3ccccc23)C(=O)O)cc1 (stereo unspecified)	7.33
4. NS(=O)(=O)c1ccc(N/C(S)=N\Cc2ccccn2)cc1	6.87
5. NS(=O)(=O)c1ccc(NC(=S)NC(Cc2cnc[nH]2)C(=O)NCC(=O)O)cc1 (stereo unspecified)	7.89
6. NS(=O)(=O)c1ccc(N/C(S)=N\CCc2ccccn2)cc1	6.91
7. CC(C)CC(/N=C(\S)Nc1ccc(S(N)(=O)=O)cc1)C(=O)O (stereo unspecified)	7.68
8. CC(O)C(NC(=S)Nc1ccc(S(N)(=O)=O)cc1)C(=O)O (stereo unspecified)	7.52
9. NS(=O)(=O)c1ccc(NC(=S)N2CCCC2C(=O)O)cc1 (stereo unspecified)	6.96
10. NS(=O)(=O)c1ccc(N/C(S)=N/C(C(=O)O)C(O)c2ccccc2)cc1 (stereo unspecified)	7.62
11. NS(=O)(=O)c1ccc(N/C(S)=N\CCc2ccccc2)cc1	6.90
12. CC(C)C(/N=C(\S)Nc1ccc(S(N)(=O)=O)cc1)C(=O)O (stereo unspecified)	7.64
13. NS(=O)(=O)c1ccc(NC(=S)NC(CCC(=O)O)C(=O)O)cc1 (stereo unspecified)	7.42
14. NS(=O)(=O)c1ccc(N/C(S)=N\CCc2c[nH]cn2)cc1	7.04
15. CC(/N=C(/S)Nc1ccc(S(N)(=O)=O)cc1)C(=O)NC(Cc1ccccc1)C(=O)O (stereo unspecified)	7.64
16. NS(=O)(=O)c1ccc(N=C=S)cc1	5.30
